assay remarks: Immunosuppressive activity in Balb/c mouse B cells assessed as inhibition of LPS-induced cell proliferation at 10 uM after 48 hrs by MTT assay relative to control
Format: functional
readout kind: inhibition at 10 µM (%)

>>> readout_number("CC(=O)Oc1cc(C)c2c(c1C)C[C@H]([C@@H](C)C(=O)OCc1cn(Cc3ccc(Br)cc3)nn1)CC2")
34.1
>>> readout_number("CC(=O)Oc1cc(C)c2c(c1C)C[C@H]([C@@H](C)C(=O)OCc1cn(-c3cccc([N+](=O)[O-])c3)nn1)CC2")
26.9
>>> readout_number("CC(=O)Oc1cc(C)c2c(c1C)C[C@H]([C@@H](C)C(=O)OCc1cn(-c3ccc(O)cc3)nn1)CC2")
26.3
>>> readout_number("CC(=O)Oc1cc(C)c2c(c1C)C[C@H]([C@@H](C)C(=O)OCc1cn(-c3ccc(NC(=O)c4ccccc4)cc3)nn1)CC2")
35.2
>>> readout_number("CC(=O)Oc1cc(C)c2c(c1C)C[C@H]([C@@H](C)C(=O)OCc1cn(-c3ccc4c(c3)OCO4)nn1)CC2")
33.9
>>> readout_number("CC(=O)Oc1cc(C)c2c(c1C)C[C@H]([C@@H](C)C(=O)OCc1cn(-c3ccc(Cl)cc3)nn1)CC2")
25.1
>>> readout_number("COc1ccccc1-n1cc(COC(=O)[C@H](C)[C@@H]2CCc3c(C)cc(OC(C)=O)c(C)c3C2)nn1")
32.4
>>> readout_number("CC(=O)Oc1cc(C)c2c(c1C)[C@@H]1OC(=O)[C@@H](C)[C@@H]1CC2")
44.3
>>> readout_number("C#CCOC(=O)[C@H](C)[C@@H]1CCc2c(C)cc(OC(C)=O)c(C)c2C1")
59.3
>>> readout_number("CC(=O)Oc1cc(C)c2c(c1C)C[C@H]([C@@H](C)C(=O)OCc1cn(-c3ccc(CO)cc3)nn1)CC2")
35.7
